The reported measurements were obtained from PubChem BioAssay (NCI).

# Test system: COLO 205 colon
# Assay Info: NCI-60 one-dose screen, 48 h (100 = growth as untreated, 0 = no growth, -100 = all killed)
# Condition Label: 10 µM unless noted
# Procedure: Cells are grown in 96 well plates and exposed to the test compound for 48 hours. Compounds are tested at a single concentration, which is 10^-5 M for most compounds. The reported endpoint is percent growth (GI% or GIPRCNT), where numbers from 0 - 100% represent growth inhibition, and numbers from -100% - 0 represent cell death. For example, a value of 40 represents 60% growth inhibition. A value of 0 means no net growth occurred over the course of the experiment. […]
This is part of a sample that, as a whole, favours compounds with a hit. Of some 83,000 tested, about 20% had one in any assay.
Reported Property: growth (%)

>>> value("O=C(Nc1ccccc1C(F)(F)F)C1=NCCCCN1")
110
>>> value("COc1cc(/C=C2\\CN(S(=O)(=O)c3ccc(C)cc3)C/C(=C\\c3cc(CN4CCCC4)c(O)c(OC)c3)C2=O)cc(CN2CCCC2)c1O")
-49.4
>>> value("O=C(Nc1ncc(Cc2ccc(Cl)cc2)s1)C1=NCCCCN1")
110
>>> value("CCN(CC)c1ccc(/C=N/NC(=O)c2ccccc2Nc2ccnc(C(F)(F)F)c2)c(O)c1")
25.7
>>> value("CC(C)(C)[C@H](OCc1cn([C@H]2C[C@@H](O)[C@@H](CO)O2)c(=O)[nH]c1=O)c1ccc(C#Cc2ccccc2)cc1[N+](=O)[O-]")
79.1

====

The following molecules are shown together with reported growth values.
# Test system: MDA-MB-435 melanoma
# Assay Info: NCI-60 one-dose screen, 48 h (100 = growth as untreated, 0 = no growth, -100 = all killed)
# Condition Label: 10 µM unless noted
The panel holds about 83,000 compounds, 20% with a hit somewhere; the sample as a whole holds those more often.
Reported Property: growth (%)

>>> value("O=c1oc2ccccc2cc1-c1nn(-c2ccccc2)cc1/C=N/Nc1nc(-c2ccccc2)c(N=Nc2ccccc2)s1")
-27.8
>>> value("COc1ccc2c(c1)c(-c1nc(-c3cn(C)c4ccncc34)cs1)cn2C")
-90
>>> value("CNC(=O)c1cc(Oc2ccc3nc(NC(=O)c4cc(C(F)(F)F)cc(C(F)(F)F)c4)sc3c2)ccn1")
12.1
>>> value("O=C(Nc1ccccc1CNc1nc(Nc2ccc(OCCN3CCCC3)cc2)ncc1Cl)NC1CCCCC1")
-83.9
>>> value("COc1ccc(C2=NN3C(C2)c2cc(Br)ccc2OC3c2ccncc2)cc1 (stereo not given)")
92.4

====

# Test system: HOP-92 NSCLC
# Assay Info: NCI-60 one-dose screen, 48 h
# Condition Label: 10 µM unless noted
About 83,000 compounds went through this panel and 20% of them were active in at least one assay; those are over-represented in the sample as a whole. The source made the active and inactive calls. The calls were made as follows: active = growth percent below 10; inactive = the rest.
Outcome codes: active, inactive

>>> label_class("CCCCCC(C)(O)C(C(=O)O)c1ccccc1 (centres undefined)")
"inactive"
>>> label_class("Cn1cc(-c2csc(-c3cn(CCO)c4ccc(F)cc34)n2)c2cccnc21")
"inactive"
>>> label_class("O=C(Nc1ncc(Cc2ccccc2)s1)c1cc(-c2ccccc2)nc2ccccc12")
"inactive"
>>> label_class("Cc1ccc2c(c1)CC(O)CC1C(=O)N(CCO)CC(=O)N21 (centres undefined)")
"inactive"
>>> label_class("C=C(C)[C@@H]1CCC[C@]2(C(=O)OC)CC[C@]3(C)[C@@H](CC[C@@H]4[C@@]5(C)CCCNC(C)(C)[C@@H]5CC[C@]43C)[C@@H]12")
"inactive"
>>> label_class("N#Cc1c(-c2ccc(Cl)cc2)nc(NN=Cc2cccc(Cl)c2)nc1N1CCOCC1")
"inactive"
>>> label_class("COCCNC(=O)Cc1cc(-c2ccc(Cl)cc2)n(-c2ccccc2)c1C")
"inactive"
>>> label_class("CN(CCNc1ccc(C(=N)N)cc1)c1ccc(C(=N)N)cc1")
"inactive"
>>> label_class("COc1ccc(C2=NN(C=O)C(c3ccc(Oc4nc5c(c(=O)n(C)c(=O)n5C)n4C)c(OC)c3)C2)cc1 (centres undefined)")
"inactive"
>>> label_class("O=C(Nc1ccc2c(c1)-c1ccccc1C2)C1CC(=O)N(c2ccc3c(c2)OCO3)C1 (centres undefined)")
"inactive"
>>> label_class("C1=C2CCCC3=Cc4ccccc4OC23Oc2ccccc21")
"inactive"
>>> label_class("Nc1n[nH]c2cccc(C#Cc3cccc(C(=O)Nc4ccc(Cl)c(C(F)(F)F)c4)c3)c12")
"inactive"
>>> label_class("COC(=O)CCc1c(/C=C2\\N=C(c3ccc[nH]3)C=C2OC)[nH]c(C)c1C(=O)OCc1ccccc1")
"active"
>>> label_class("Cc1csc(Nc2nc(-c3cccc(Cl)c3)nc(C(Cl)(Cl)Cl)n2)n1")
"inactive"
>>> label_class("COCCn1cc(-c2nc(-c3cc4cccnc4n3C)cs2)c2cc(OC)ccc21")
"inactive"
>>> label_class("COC(=O)c1c(C)nc(C)c2c1C(=O)C(Br)=C(NCCCCO)C2=O")
"inactive"
>>> label_class("C=C(CNCCc1ccc(O)cc1)[C@@H]1CC[C@]2(CO)CC[C@]3(C)[C@H](CC[C@@H]4[C@@]5(C)CCC(N)C(C)(C)[C@@H]5CC[C@]43C)[C@@H]12 (some centres undefined)")
"active"
>>> label_class("Cn1ncc(CC(=O)O)c1-n1nnc2cc(Cl)ccc2c1=O")
"inactive"
>>> label_class("CC(C)c1nc(N(C)S(C)(=O)=O)nc(-c2ccc(F)cc2)c1/C=C/C(=O)C[C@@H](O)CC(=O)O")
"inactive"

====

# System: SK-MEL-5 melanoma
# Assay Info: NCI-60 one-dose screen, 48 h
# Condition Label: 10 µM unless noted
Compounds without any hit were thinned out: in the full panel of roughly 83,000, 20% have a hit. The source made the active and inactive calls. Rule for the calls: active = growth percent below 10; inactive = the rest.
Labels: active, inactive

>>> label_class("NC(=O)[C@@H]1Cc2ccccc2CN1C(=O)c1ccc2c(c1)Cc1ccccc1-2")
"inactive"
>>> label_class("C=C1C(=O)O[C@H]2[C@H]1CC/C(CNC(=O)/C=C/c1cc(OC)c(OC)c(OC)c1)=C\\CC[C@@]1(C)O[C@@H]21")
"inactive"
>>> label_class("COc1ccc(C2=NN(C=O)C(c3ccc(Oc4nc5c(c(=O)n(C)c(=O)n5C)n4C)c(OC)c3)C2)cc1 (stereo not given)")
"inactive"
>>> label_class("CC(C)(C)c1ccc(C(=O)Nc2sc3c(c2C#N)CCC(=O)C3)cc1")
"active"
>>> label_class("CCCCC1=C(Br)C(=O)c2ncccc2C1=O")
"inactive"

====

# System: BT-549 breast
# Assay Info: NCI-60 one-dose screen, 48 h
# Condition Label: 10 µM unless noted
This is part of a sample that, as a whole, favours compounds with a hit. Of some 83,000 tested, about 20% had one in any assay. Activity calls are given as the source filed them. The calls were made as follows: active = growth percent below 10; inactive = the rest.
Outcome codes: active, inactive

>>> label_class("O=C(Nc1cccc2c1C(=O)c1cccc(NC(=O)c3ccc(C(=O)Nc4cccc5c4C(=O)c4cccc(NC(=O)c6ccccc6)c4C5=O)cc3)c1C2=O)c1ccccc1")
"inactive"
>>> label_class("CCN1C(=O)N(CC)C2C1NN=c1s/c(=C\\c3ccc([N+](=O)[O-])cc3)c(=O)n12 (centres undefined)")
"inactive"
>>> label_class("C=CC(=O)NCc1cccc(Nc2ncc(Br)c(NCCCNC(=O)C3CCC3)n2)c1")
"active"
>>> label_class("CCN1C(=O)N(CC)C2C1NC(=S)N2/N=C/C=C/c1ccccc1 (centres undefined)")
"active"
>>> label_class("N#C/C(=C\\c1cccc2cnccc12)N1N=NC2C=CC=CC21 (centres undefined)")
"inactive"
>>> label_class("O=S(=O)(c1ccc(NCSc2nc3ccccc3s2)cc1)c1ccc(NCSc2nc3ccccc3s2)cc1")
"inactive"
>>> label_class("C#Cc1cccc(Nc2nc(Cl)nc3cc(NC(=O)CCl)ccc23)c1")
"active"
>>> label_class("CC1=C(C(=O)c2ccccc2)C(c2ccc3c(c2)OCO3)NC(=S)N1 (centres undefined)")
"inactive"
>>> label_class("CC/C(=C(/c1ccc(Cl)cc1)c1ccc(OCCN2CCCCCC2)cc1)c1ccccc1")
"inactive"

====

# Tested on: CAKI-1 renal
# Assay Info: NCI-60 one-dose screen, 48 h
# Condition Label: 10 µM unless noted
Compounds without any hit were thinned out: in the full panel of roughly 83,000, 20% have a hit. The source made the active and inactive calls. The calls were made as follows: active = growth percent below 10; inactive = the rest.
Outcomes: active, inactive

>>> label_class("Nc1nc(Nc2ccc([N+](=O)[O-])cc2O)nc(C(Cl)(Cl)Cl)n1")
"inactive"
>>> label_class("C#CC#CC#CC#CC#CC#CC#CC#CC[C@@H]1OC[C@H](COC(=O)O[C@@H](C(=O)O[C@H]2C[C@@]3(O)[C@@H](OC(=O)c4ccccc4)[C@@H]4[C@]5(OC(C)=O)CO[C@@H]5C[C@H](O)[C@@]4(C)C(=O)[C@H](OC(C)=O)C(=C2C)C3(C)C)[C@@H](NC(=O)c2ccccc2)c2ccccc2)O1")
"inactive"
>>> label_class("COc1cc(CNC(=O)CCCC/C=C/C(C)C)ccc1OCc1cn(-c2ccc(C(F)(F)F)cc2)nn1")
"inactive"
>>> label_class("c1ccc2[nH]c(-c3ccc(-c4nccc5c4[nH]c4ccccc45)cc3)nc2c1")
"inactive"
>>> label_class("N#C/C(Sc1nc2sc3c(c2c(=O)n1Cc1ccccc1)CCCC3)=C1/SC=C(c2ccc(Cl)cc2)N1c1ccccc1")
"inactive"
>>> label_class("O=C(O)c1cc2ccccc2s1")
"inactive"
>>> label_class("NC(=N\\N=C/c1ccc(Cl)cc1Cl)/C(N)=N\\N=C/c1ccc(Cl)cc1Cl")
"inactive"
>>> label_class("Oc1ccc(C(c2ccc(O)cc2)c2ccc(Cl)cn2)cc1")
"inactive"
>>> label_class("C=CCn1c(SCC(=O)Nc2ccc(C(=O)/C=C/c3ccc(Cl)cc3)cc2)nnc1-c1ccc(Cl)c(Cl)c1")
"inactive"
>>> label_class("Cc1ccc(S(=O)(=O)c2nc(-c3ccccc3)oc2S(C)=O)cc1 (configuration not stated)")
"active"
>>> label_class("N=C(N)c1ccc(-c2ccc(-c3ccccc3)s2)nc1")
"inactive"
>>> label_class("CC(C)=CC(=O)C1C(=O)c2ccccc2C1=O")
"inactive"
>>> label_class("C=CCNc1ccc2c3c(cccc13)C(=O)N(CC=C)C2=O")
"inactive"
>>> label_class("[2H]C([2H])([2H])Oc1c(F)cccc1/C=C/C(=O)/C=C(O)/C=C/c1cccc(F)c1OC([2H])([2H])[2H]")
"inactive"
>>> label_class("CN(C)CCOc1nc2c3cc([N+](=O)[O-])ccc3nn2c2ccccc12")
"inactive"
>>> label_class("CCOC(=O)CCC(=O)P(=O)(O)O")
"inactive"
>>> label_class("N#Cc1nn(-c2ccccn2)c(N)c1C#N")
"inactive"
>>> label_class("C#C[C@]1(O)CC[C@H]2[C@@H]3CC=C4c5sc(-c6cccc(C)c6)nc5CC[C@]4(C)[C@H]3CC[C@@]21C")
"inactive"
>>> label_class("Cc1c(N2CCCCC2)[nH]c2ccccc12")
"inactive"
>>> label_class("C=C1/C(=C\\C=C2/CCC[C@]3(C)[C@@H]([C@H](C)CCCC(C)(C)O)CC[C@@H]23)C[C@@H](OC(=O)CBr)C[C@@H]1O")
"active"
>>> label_class("Cc1oc2ccc(O)c(CN3CCCCCC3)c2c1C(=O)Nc1ccc(C(F)(F)F)cc1")
"inactive"
>>> label_class("O=C1/C(=C/c2ccccc2)COc2ccc(O)cc21")
"inactive"
>>> label_class("O=C(/C=C/c1cccc([N+](=O)[O-])c1)c1ccc(Nc2nc(Nc3ccc(F)cc3)nc(Nc3ccc(Cl)cc3)n2)cc1")
"inactive"
>>> label_class("O=C(/C=C/c1ccc(Cl)cc1)c1ccc(Nc2ccnc3cc(Cl)ccc23)cc1")
"inactive"
>>> label_class("Cc1nc2ccccc2c(/C=C/c2ccc(Cl)cc2)c1C(=O)/C=C/c1ccccc1")
"active"
>>> label_class("COc1cc2cc(Oc3ccc(NC(=O)Nc4ccc(Cl)c(Cl)c4)cc3)c(C)nc2cc1OCCN1CCCCC1")
"inactive"
>>> label_class("COc1cc2cc(Oc3ccc(NC(=O)Nc4ccc(F)c(C(F)(F)F)c4)cc3)c(C)nc2cc1OCCN1CCCCC1")
"active"
>>> label_class("Cc1ccc(-c2nc(C#N)c(S(=O)(=O)n3nc(C)cc3N)o2)cc1")
"inactive"
>>> label_class("Clc1ccc(C2=Nn3c(nnc3-c3cc(Cl)cc(Cl)c3Cl)SC2)cc1")
"inactive"
>>> label_class("CN1CCN(Cc2ccc(NC(=O)c3cc(C#Cc4cnc(N)c5ncccc45)n(C)n3)cc2C(F)(F)F)CC1")
"inactive"
>>> label_class("CC1OC(C(=O)N2CCN(CCO)CC2)CC1COC1CCCCC1 (configuration not stated)")
"inactive"
>>> label_class("Nc1nc(=O)n([C@H]2CC=C(CO)O2)cc1F")
"inactive"
>>> label_class("Nc1ncnc2c1N=C(c1ccc([N+](=O)[O-])cc1)CC(c1ccc3c(c1)OCO3)N2 (configuration not stated)")
"inactive"
>>> label_class("CC(C)n1cc(C2=C(c3cccc4ccccc34)C(=O)NC2=O)c2cc(Br)ccc21")
"inactive"
>>> label_class("CCOC(=O)C1=CCC(n2cc(F)c(=O)[nH]c2=O)O1 (configuration not stated)")
"inactive"
>>> label_class("COc1cc(/C=C/c2cc(/C=C/c3ccc(O)c(OC)c3)n(C(=O)Nc3ccc(C)cc3C)n2)ccc1O")
"active"
>>> label_class("O=C(Nc1cccc2c1C(=O)c1cccc(NC(=O)c3ccc(C(=O)Nc4cccc5c4C(=O)c4cccc(NC(=O)c6ccccc6)c4C5=O)cc3)c1C2=O)c1ccccc1")
"inactive"
